# System: K4 kissing-loop RNA reporter;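 further: bound reporter read as fluorescence of individual clusters on recovered sequencing chips by microscopy, with normalized cluster intensities fitted with a binding model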
# EXPERIMENTAL PROTOCOL: apparent KD of K4 kissing-loop reporter; higher = weaker reporter binding
# SETTINGS: Eterna round: R107; input ligand: FMN 200 uM
OBSERVABLE: apparent KD of K4 kissing-loop reporter (nM)
Answer with a number only, understood to be in nM.

Take a look at these entries with their results.
SEQUENCE INPUT: AGUGAUGUAUGGCGGUUUGUCACUUAUAAUCAGGAUAUAUAAACAAAUAGAAGGGAUGGCGGAGUGAUGUUCCGCCGGCCGCCAU [FMN A Exl V5]
apparent KD of K4 kissing-loop reporter [nM]: 170

SEQUENCE INPUT: GUGCGGCUAGUGAUGUUGGUUGCGUGGGAAGGAGCGCAGAAACAUGCAGGUAGGUCGCCCACAUCUCUGAUAAAAGAUUAAUUCA [Riares]
apparent KD of K4 kissing-loop reporter [nM]: 304

SEQUENCE INPUT: AUGAGGAGCAGUGAUCCUAUUCCAUGGGAAGGAGCGUAGGAUACUACAGGUAGGUCGCCCAGUGAUGUUGGGCGCGUGCUCUUGG [Zaqua]
apparent KD of K4 kissing-loop reporter [nM]: 159

Could you now consider this next sequence?
IN: So what does the record say about apparent KD of K4 kissing-loop reporter for UACAUCGAGCAGAGUGAUGUUUUGUGCGAUACCAGCAAGUGCAAGUGCCCUUGGCAGCGCAAGCGGUUGUAUGUAGGACCGGACG [theeternabot_exclusion_KL_Theo_A_21] ?
OUT: 433

* * *

# Test system: MS2 coat protein
# EXPERIMENTAL PROTOCOL: apparent KD of MS2 coat protein; designed switch direction (-1 OFF switch, 1 ON switch): -1; higher = weaker reporter binding
# SETTINGS: input ligand: none
Reported apparent KD of MS2 coat protein values follow for various sequences
Answer with a number only, understood to be in nM.

Take a look at these entries with their results.
SEQUENCE INPUT: ACAAGCUUUUUCAUAUCUUACAUGAGGAUCACCCAUGUUUUUGCAAUUAUGUUUGGGCUCUUUUGAGCUCGUCUUAU [JR_STOV1_Sub048] (Eterna round: R97, puzzle: Sensor, turn-off variant 1)
EXPERIMENTAL TARGET: MS2 coat protein
OBSERVABLE: apparent KD of MS2 coat protein
MEASURED RESULT: 14.4
//
SEQUENCE INPUT: UAUAUGUCAGGAUAUUAGUAGUAAAUGAAUAAAAUUAUUACUGAGAAGGGACAUGAGGAUCACCCAUGUGCCUU [Mat - Exclusion 4 - Eli Mod - D23] (Eterna round: R97, puzzle: Exclusion 4)
EXPERIMENTAL TARGET: MS2 coat protein
OBSERVABLE: apparent KD of MS2 coat protein
MEASURED RESULT: 16.6
//
SEQUENCE INPUT: GUUUUACAUGAGGAUCACCCAUGUGAGGAUAUAUUAUUAAUAGUGAUAAUUAUUGGUGGUAGAAGGCGCGUGAU [JR_Exc1_Sub012] (Eterna round: R97, puzzle: Exclusion 1)
EXPERIMENTAL TARGET: MS2 coat protein
OBSERVABLE: apparent KD of MS2 coat protein
MEASURED RESULT: 53.1
//
SEQUENCE INPUT: AAAUAAAACAAGCAAUAAAACAUGAGGAUCACCCAUGUAAAGGGUGAAGUUCGCACCCAAAAAUAAAAUAAAUAAAA [Denovo Take 6, 5] (Eterna round: R96, puzzle: Sensor v2, turn-off variant)
EXPERIMENTAL TARGET: MS2 coat protein
OBSERVABLE: apparent KD of MS2 coat protein
MEASURED RESULT: 25
//
SEQUENCE INPUT: UCGCGAAGAGGAUAUACAUAGAAAUAGAUUCAUGUAAAACUACAUGAGGAUCACCCAUGUAGAAGGCUUUGCGU [Mat - Exclusion 2 - JL Mod - D60] (Eterna round: R97, puzzle: Exclusion 2)
EXPERIMENTAL TARGET: MS2 coat protein
OBSERVABLE: apparent KD of MS2 coat protein
MEASURED RESULT: 17
//
SEQUENCE INPUT: CUUUAGACAGGAUAUACUUCCGUGGUCGUAGAGUUACACAGACAUGAGGAUCACCCAUGUAGAAGGGUCAAGCU [Eternabot (L2) Solution 94] (Eterna round: R97, puzzle: Exclusion 2)
EXPERIMENTAL TARGET: MS2 coat protein
OBSERVABLE: apparent KD of MS2 coat protein
MEASURED RESULT: 84.7

IN: So what does the record say about apparent KD of MS2 coat protein for CCUAGACAUGAGGAUCACCCAUGUGAGGAUAUGAUGCGAUCGUCGAAAGACGAUAGCAUCAGAAGGCACAUAUG [Fiskers Ex 1 - 5] (Eterna round: R96, puzzle: Exclusion 1) ?
OUT: 37.6

IN: So what does the record say about apparent KD of MS2 coat protein for UUCGUGCUGCUUUGCUGUACGAGUACAUGAGGAUCACCCAUGUAGGAUAUGGUUCGCUUUGCGUGCUAGAAGGAUAUGUGUUGC [salish99_ExNG3_r04_507] (Eterna round: R96, puzzle: Exclusion NG 3) ?
OUT: 26

IN: So what does the record say about apparent KD of MS2 coat protein for AGAUCGUCAGGAUAUACAUGAGGAUCACCCAUGUACUGUCUAAAUUUGACUGUAAGAUGUAGAAGGGACGAUCG [Exclusion 3 (MOD9 of #1 Marzena11)] (Eterna round: R97, puzzle: Exclusion 3) ?
OUT: 25.8

IN: So what does the record say about apparent KD of MS2 coat protein for AUUUUAUUCUGAGGAUAUUGAUUAAUCCUCUCACAUGAGGAUCACCCAUGUUUCCGUGUUUACCGCAAGAAGGCAGUUUUGUAU [JR_ExcNG2_Sub025] (Eterna round: R96, puzzle: Exclusion NG 2) ?
OUT: 41

* * *

# Test system: MS2 coat protein
# EXPERIMENTAL PROTOCOL: apparent KD of MS2 coat protein; higher = weaker reporter binding
# SETTINGS: Eterna round: R107; input ligand: theophylline 20 uM
Reported apparent KD of MS2 coat protein values follow for various sequences
Answer with a number only, understood to be in nM.

Take a look at these entries with their results.
SEQUENCE INPUT: UUGACAUGAGGAUCACCCAUGUCAAAGGCACGAGGACCGGUACGGCCGCCACUCGUGGUCUAUGGCUGGUGGACUCGUGUCUCGG [Soisusdira]
READING UNIT: nM
apparent KD of MS2 coat protein: 16

SEQUENCE INPUT: AACAUGAGGAUCACCCAUGUGUCCUCGAAACGAGGACCGGUACGGCCGCCACUCGACGUAUGUUGACGAAAAGUCAGCAUACGAA [Mat - Exclusion - Trytophan A - D12]
READING UNIT: nM
apparent KD of MS2 coat protein: 310

IN: So what does the record say about apparent KD of MS2 coat protein for AUAACAUGAGGAUCACCCAUGUAGAGUGAUACCAGACUAUGUAAUGUCCCUUGGCAGCACAAGUAAAGUUAUAAAUAAUGAUAGA [JR_SSTheophyA_Sub001] ?
OUT: 126

* * *

# Tested on: MS2 coat protein
# EXPERIMENTAL PROTOCOL: apparent KD of MS2 coat protein, switch OFF state (with FMN for OFF switches, without FMN for ON switches); designed switch direction (-1 OFF switch, 1 ON switch): -1; higher = weaker reporter binding
# SETTINGS: FMN input: 0 or 200 uM; Eterna round: R93 (includes R88 designs)
I would appreciate it if you labelled entries met when apparent KD of MS2 coat protein is 40 nM or higher, otherwise not met.

Here are 3 sequences together with their reported answers.
SEQUENCE INPUT: AAAAAGUGAGGAUAUACGCUGAAGAGUAGACACAACCAGGCGUAGAAGGCACAUGAGGAUCACCCAUGUACAAA [Ex4 Malc#9]
LABEL VALUE: not met
//
SEQUENCE INPUT: AUAGGCCUAGGAUAUACAUGAGGAUCACCCAUGUAAACCGAUAGAUCACGGUAAACGAGUAGAAGGAGGAAUAA [JR_Exc003_Sub208]
LABEL VALUE: not met
//
SEQUENCE INPUT: AGCUAGUCAGGAUAUACGAACAUGUAAAAAGACGUGAAGGGACAUGAGGAUCACCCAUGUAGAAGGGACUAGCA [74%, Web mod - With 1 less C's]
LABEL VALUE: met

IN: hey, is apparent KD of MS2 coat protein for this one >= 40 nM? GAAAAGUGAGGAUAUGUCAAAAGUCACAAAAGUGACAAAAGACAGAAGGCACAUGAGGAUCACCCAUGUGAAAA [Mat - Exaclusion 4 - Eli mod - D55]
OUT: met

IN: hey, is apparent KD of MS2 coat protein for this one >= 40 nM? CAAAGGUGAGGAUAUACAAGGAUAUGACGAAAGUCAUAAAAACAUGAGGAUCACCCAUGUAGAAGGCACCACAA [E2 64% 4]
OUT: met

IN: hey, is apparent KD of MS2 coat protein for this one >= 40 nM? AACAGUACAGGAUAUACAUGAGGAUCACCCAUGUGAGAAACCAAUGGCGUACCAUAAAGUAGAAGGGUACUGGA [Moding Maslow Revisited (73) 31]
OUT: met

IN: hey, is apparent KD of MS2 coat protein for this one >= 40 nM? AAAAAACAUGAGGAUCACCCAUGUCAGGAUAUCGAAAGAAAAAAAAAGAAAGAAAAAACGAGAAGGGACAAAAA [Amethyst 29]
OUT: not met

Source listed as the supplement of paper PMC9170038.
